System: MS2 coat protein
experiment-description: apparent KD of MS2 coat protein, switch OFF state (with FMN for OFF switches, without FMN for ON switches); designed switch direction (-1 OFF switch, 1 ON switch): 1; higher = weaker reporter binding
experimental-setup: FMN input: 0 or 200 uM; Eterna round: R93 (includes R88 designs)
Kind request: treat 60 nM as inclusive, so apparent KD of MS2 coat protein at 60 nM or higher is 1.0, anything lower is 0.0.

Hi, just wondering whether "AAGAAACAUGAGGAUCACCCAUGUAAACUCGAGAGAGGAUAUGGUACAUGGAAGAUCCAACUAGAAGGCUCUGGAG" shows apparent KD of MS2 coat protein of 60 nM or higher.
0.0

Hi, just wondering whether AAAAUAAAAAGGUAGGAUAUGGGUAAACCUACAUGAGGAUCACCCAUGUAAUAAAAAGAAAAAAACCAGAAGGACCAAAAUAAAA [72%, More Wateronthemoon, 9] shows apparent KD of MS2 coat protein of 60 nM or higher.
0.0

Hi, just wondering whether AGGAAACAUGAGGAUCACCCAUGUGUAAAAAAUACAGGAUAUGGAAACACGAAAGUGAAACCAGAAGGGUAAAAAA [77%, Mat - Mod of Eli, 31] shows apparent KD of MS2 coat protein of 60 nM or higher.
0.0

Hi, just wondering whether AAAAAACAUGAGGAUCACCCAUGUGCAAAAUUCGCAGGAUAUUCUUUUUUUAAAUGAGAGGGAGAAGGGUGUAAAA [Nob's Hobby 21 - Jieux - Same State 1] shows apparent KD of MS2 coat protein of 60 nM or higher.
0.0

Hi, just wondering whether AAAUAAAUGACUAAGGAUAUAUCGAAGAAGACAUGAGGAUCACCCAUGUGAUAAUAAAAAGGGUGGUAGAAGGUAGUCAACAAAC [Mod 5 of Pariah 4 by Hyphema in Round 1] shows apparent KD of MS2 coat protein of 60 nM or higher.
1.0

Hi, just wondering whether AAUCCAAAUAGUUAGGAUAUGGGAAUUAAGACAUGAGGAUCACCCAUGUAAUUAAAACAAGUUAACCAGAAGGGACAGGGUGAAA [JR_SS002_Sub207] shows apparent KD of MS2 coat protein of 60 nM or higher.
1.0

Hi, just wondering whether AAAAGACAUGAGGAUCACCCAUGUGAAAACGUGCGAGGAUAUGUAUGGAAACCAUACUGUACAGAAGGCGCGUGUC [SS1 - 83] shows apparent KD of MS2 coat protein of 60 nM or higher.
0.0

Hi, just wondering whether AGAAAUAAAACACAGGAUAUGAAAAAGAAAACAUGAGGAUCACCCAUGUAAAAGAAAAAUAAAAAUCAGAAGGGUGAAAAUAAAG [Put G segment last in JL design (80%)] shows apparent KD of MS2 coat protein of 60 nM or higher.
1.0

Hi, just wondering whether AUCAGGAAGAGAGAGGAUAUCCAAAGGAAAACAUGAGGAUCACCCAUGUAAAAGGUAGGAAAUUGGGAGAAGGCUCAAGAGAGAG [salish99-ss2-093] shows apparent KD of MS2 coat protein of 60 nM or higher.
0.0

Hi, just wondering whether CCGAUGGUAUACUAGGAUAUGGGCGCCCUUACAUGAGGAUCACCCAUGUUUACACAAAUCCGCGGCCAGAAGGAGUUCAUGGGAG [Orgere] shows apparent KD of MS2 coat protein of 60 nM or higher.
1.0

Hi, just wondering whether AGAAAUAAAAGAGAGGAUAUCCAAAAGAAAACAUGAGGAUCACCCAUGUGAAAGAAAAGAAAAUGGGAGAAGGCUCAAAAUAAGA [Topaz 18] shows apparent KD of MS2 coat protein of 60 nM or higher.
0.0
